Data credit: patent EP4813463A2

Below: a set of entries, each annotated with reported pIC50.
target: TYK2-JH2 domain (Homo sapiens); construct: JAK1-JH2 domain or TYK2-JH2 domain enzyme in assay buffer; assay: Binding activity test for JH2 domain of TYK2 (Tb-antibody/tracer FRET); conditions: JH2 domain enzyme; 60 min at 25°C, then 4°C overnight; read-out: TYK2 JH2 Binding IC50
pIC50: −log10 of the molar value.
assay_endpoint: pIC50

compound: [2H]C([2H])([2H])NC(=O)c1cnc(Nc2cc(C)nc(C)n2)cc1Nc1cnn2ccc([C@H](O)C(F)(F)F)c(OC)c12
assay_endpoint: pIC50
reported_value: 10.17
//
compound: COC(=O)c1cnc(NC(=O)C2CC2)cc1Nc1cnn2ccc(C3CCCO3)c(OC)c12 (centres unmarked)
assay_endpoint: pIC50
reported_value: 8.75
//
compound: CCOC(=O)c1cnc(NC(=O)C2CC2)cc1Nc1cnn2ccc([C@H](O)C(F)(F)F)c(OC)c12
assay_endpoint: pIC50
reported_value: 9.12
//
compound: COC(=O)c1cnc(NC(=O)C2CC2)cc1Nc1nn(C)c2ccc(C(OC)C(C)(F)F)c(OC)c12 (single isomer, unassigned) [Example 115A]
assay_endpoint: pIC50
reported_value: 9.92
//
compound: CCn1nc(Nc2cc(NC(=O)C3CC3)ncc2C(=O)OC)c2c(OC)c(C(O)C(F)(F)F)ccc21 (single isomer, unassigned) [Example 70B]
assay_endpoint: pIC50
reported_value: 8.67
//
compound: CNC(=O)c1cnc(NC(=O)C2CC2)cc1Nc1nn(C)c2ccc([C@H](O)C(F)(F)F)c(OC)c12
assay_endpoint: pIC50
reported_value: 10.27
//
compound: COc1c([C@H](OC)C(F)(F)F)ccn2ncc(Nc3cc(NC(=O)C4CC4)ncc3C(O)CC#N)c12 (some centres unmarked)
assay_endpoint: pIC50
reported_value: 7.58
//
compound: CNC(=O)c1cnc(NC(=O)C2CC2)cc1Nc1nn(C)c2ccc([C@H](OC)C(F)(F)F)c(OC)c12
assay_endpoint: pIC50
reported_value: 10.12
//
compound: COC(=O)c1c(Nc2nn(C)c3ccc(C(OC)C(F)(F)F)c(OC)c23)cc(NC(=O)C2CC2)nc1F (single isomer, unassigned) [Example 98B]
assay_endpoint: pIC50
reported_value: 8.41
//
compound: [2H]C([2H])([2H])CC(=O)c1cnc(NC(=O)C2CC2)cc1Nc1nn(C)c2ccc(Cl)c(OC)c12
assay_endpoint: pIC50
reported_value: 9.84
//
compound: [2H]C([2H])([2H])NC(=O)c1cnc(NC(=O)C2CC2)cc1Nc1cnn2ccc(C(C)C(F)(F)F)c(OC)c12 (single isomer, unassigned) [Example 9A]
assay_endpoint: pIC50
reported_value: 9.37
//
compound: COC(=O)c1cnc(NC(=O)C2CC2)cc1Nc1ccn2ncc(C(OC)C(F)(F)F)c2c1OC (centres unmarked)
assay_endpoint: pIC50
reported_value: 7.90
//
compound: C/C=C(\F)c1cnc(NC(=O)C2CC2)cc1Nc1nn(C)c2ccc(C(O)C(F)(F)F)c(OC)c12 (centres unmarked)
assay_endpoint: pIC50
reported_value: 9.16
//
compound: [2H]C([2H])([2H])CC(=O)c1cnc(NC(=O)C2CC2)nc1Nc1cccc(-c2cnn(C)n2)c1OC
assay_endpoint: pIC50
reported_value: 9.56

====

molecular target: TYK2-JH2 domain (Homo sapiens); construct: JAK1-JH2 domain or TYK2-JH2 domain enzyme in assay buffer; experiment: Binding activity test for JH2 domain of TYK2 (Tb-antibody/tracer FRET); conditions: ratio of JAK1 JH2 to TYK2 JH2 binding IC50
Checkbox rule: JAK1/TYK2 selectivity lower than 60 = T; JAK1/TYK2 selectivity not lower than 60 = F.

compound: [2H]C([2H])([2H])NC(=O)c1cnc(NC(=O)C2CC2)cc1Nc1cnn2cnc(C(C)C(F)(F)F)c(OC)c12 (stereo not drawn)
class_label: F

compound: [2H]C([2H])([2H])NC(=O)c1cnc(NC(=O)C2CC23CC3)cc1Nc1cnn2ccc([C@H](O)C(F)(F)F)c(OC)c12 (single isomer, unassigned) [Example 32A]
class_label: F

compound: [2H]C([2H])([2H])CC(=O)c1cnc(NC(=O)C2CC2)cc1Nc1nn(C)c2ccc([C@@H](O)C(F)(F)F)c(OC)c12 [Example 54B]
class_label: T

compound: [2H]C([2H])([2H])NC(=O)c1cnc(NC(=O)C2CC2)cc1Nc1cnn2ccc(C(O)(C(F)(F)F)C(F)(F)F)c(OC)c12
class_label: F

compound: COC(=O)c1cnc(NC(=O)C2CC2)nc1Nc1cccc(-c2ncn(C)n2)c1OC
class_label: T

compound: [2H]C([2H])([2H])NC(=O)c1cnc(NC(=O)C2CC2)cc1Nc1cnn2ccc(C(C)C(F)(F)F)c(OC)c12 (single isomer, unassigned) [Example 9B]
class_label: F

====

experiment: Pharmacokinetic study in rats; format: in vivo; conditions: rat, plasma; Sprague-Dawley rats, intravenous, 1 mg/kg, solution

molecule: [2H]C([2H])([2H])NC(=O)c1cnc(NC(=O)C2CC2)cc1Nc1cnn2ccc([C@H](O)C(F)(F)F)c(OC)c12 [Example 7A]
AUC, ng·h/mL: 317

====

Assay: Pharmacokinetic study in rats
Type: in vivo
Conditions: rat, plasma; Sprague-Dawley rats, oral, 10 mg/kg, solution
Procedure: Pharmacokinetic profiles of test articles were evaluated in fasted mouse, Sprague-Dawley rats and Beagle dogs. After dosing, blood samples were collected at each time point. For IV injection group, time points were set at 5, 15, 30 min, and then 1, 2, 4, 8 and 24 hours after dosing. […] Plasma was obtained within 1 hours of blood collection by centrifugation at 8000×g and 4 °C for 6 minutes, and then stored at -20 °C until analyzed by LC/MS/MS for quantification. […]

compound: [2H]C([2H])([2H])NC(=O)c1cnc(NC(=O)C2CC2)cc1Nc1nn(C)c2ccc([C@H](O)C(F)(F)F)c(OC)c12 [Example 49A]
Cmax: 74.2 ng/mL
//
compound: [2H]C([2H])([2H])NC(=O)c1cnc(NC(=O)C2CC2)cc1Nc1cnn2ccc([C@H](O)C(F)(F)F)c(OC)c12
Cmax: 31.3 ng/mL

====

biological target: TYK2-JH2 domain (Homo sapiens, UniProt P29597); construct: JAK1-JH2 domain or TYK2-JH2 domain enzyme in assay buffer; test: Binding activity test for JH2 domain of TYK2 (Tb-antibody/tracer FRET); settings: JH2 domain enzyme; 60 min at 25°C, then 4°C overnight; read-out: TYK2 JH2 Binding IC50
Sequence (P29597 589-875 limits assumed): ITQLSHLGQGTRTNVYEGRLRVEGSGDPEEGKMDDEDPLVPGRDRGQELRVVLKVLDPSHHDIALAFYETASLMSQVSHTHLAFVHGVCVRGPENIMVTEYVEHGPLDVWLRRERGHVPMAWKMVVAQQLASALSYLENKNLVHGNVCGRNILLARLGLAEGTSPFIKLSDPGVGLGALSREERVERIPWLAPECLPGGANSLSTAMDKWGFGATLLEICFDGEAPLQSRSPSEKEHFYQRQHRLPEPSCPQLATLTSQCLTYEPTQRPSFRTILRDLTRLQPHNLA
pIC50: −log10 of the molar value.
Record YES whenever pIC50 is at 9 or higher; record NO when lower.

molecule: [2H]C([2H])([2H])n1nc(Nc2cc(NC(=O)C3CC3)ncc2C(=O)OC)c2c(OC)c(C(OC)C(F)F)ccc21 (stereo not shown)
class_label: YES
//
molecule: [2H]C([2H])([2H])NC(=O)c1cnc(NC(=O)C2CC2)cc1Nc1cnn2ccc(C(C)C(F)(F)F)c(OC)c12 (stereo not shown) [Example 9]
class_label: YES
//
molecule: [2H]C([2H])([2H])NC(=O)c1nnc(NC(=O)C2CC2)cc1Nc1cccc(-c2ncn(C)n2)c1C(C)O (stereo not shown)
class_label: NO
//
molecule: COC(=O)c1cnc(NC(=O)C2CC2)cc1Nc1nn(C)c2ccc(C(OC)C3(F)CC3)c(OC)c12 (stereo not shown)
class_label: YES
//
molecule: COC(=O)c1cnc(NC(=O)C2CC2)cc1Nc1nn(C(F)(F)F)c2ccc(C(OC)C(F)(F)F)c(OC)c12 (stereo not shown)
class_label: YES
//
molecule: CCOC(c1ccc2c(c(Nc3cc(NC(=O)C4CC4)ncc3C(=O)OC)nn2C)c1OC)C(F)(F)F (single isomer, unassigned) [Example 106A]
class_label: NO

====

assay: Pharmacokinetic study in mice; format: in vivo; details: mouse, plasma, intravenous, 3 mg/kg, solution

compound: [2H]C([2H])([2H])NC(=O)c1cnc(NC(=O)C2CC2)cc1Nc1nn(C)c2ccc([C@H](OC([2H])([2H])[2H])C(F)(F)F)c(OC)c12 [Example 55A]
half-life: 2.57 h

====

molecular target: TYK2-JH2 domain (Homo sapiens, UniProt P29597); construct: JAK1-JH2 domain or TYK2-JH2 domain enzyme in assay buffer; experiment: Binding activity test for JH2 domain of TYK2 (Tb-antibody/tracer FRET); conditions: ratio of JAK1 JH2 to TYK2 JH2 binding IC50
Decide using JAK1/TYK2 selectivity: a value greater than or equal to 100 is Satisfied, a smaller one is Not satisfied.

compound: [2H]C([2H])([2H])NC(=O)c1cnc(NC(=O)C2CC2)cc1Nc1nn(C)c2ccc(C(C)C(F)(F)F)c(OC)c12 (stereo not shown) [Example 191]
target_under_test: TYK2-JH2 domain (Homo sapiens, UniProt P29597)
class_label: Not satisfied
--
compound: [2H]C([2H])([2H])NC(=O)c1nnc(NC(=O)C2CC2)cc1Nc1cnn2ccc([C@H](O)C(F)(F)F)c(OC)c12 [Example 30]
target_under_test: TYK2-JH2 domain (Homo sapiens, UniProt P29597)
class_label: Satisfied
--
compound: CCONC(=O)c1cnc(NC(=O)C2CC2)cc1Nc1nn(C)c2ccc(C(OC)C(F)(F)F)c(OC)c12 (stereo not shown) [Example 75]
target_under_test: TYK2-JH2 domain (Homo sapiens, UniProt P29597)
class_label: Satisfied
--
compound: COC(=O)c1cnc(NC(=O)C2CC2)cc1Nc1cnn2ccc([C@H](OC)C(F)(F)F)c(OC)c12 [Example 42]
target_under_test: TYK2-JH2 domain (Homo sapiens, UniProt P29597)
class_label: Satisfied
--
compound: COC1CN(c2ccc3nc(Nc4cc(NC(=O)C5CC5)ncc4C(C)(F)F)nn3c2)C1 [Example 176]
target_under_test: TYK2-JH2 domain (Homo sapiens, UniProt P29597)
class_label: Not satisfied
--
compound: COC(=O)c1cnc(NC(=O)C2CC2)cc1Nc1n[nH]c2ccc(C(OC)C(F)(F)F)c(OC)c12 (stereo not shown) [Example 113]
target_under_test: TYK2-JH2 domain (Homo sapiens, UniProt P29597)
class_label: Satisfied
--
compound: COC(=O)c1cnc(NC(=O)C2CC2)cc1Nc1cccc(-c2ncn(C)n2)c1OC [Example 58]
target_under_test: TYK2-JH2 domain (Homo sapiens, UniProt P29597)
class_label: Not satisfied
--
compound: CCC(=O)c1cnc(NC(=O)C2CC2)cc1Nc1nn(C)c2ccc([C@H](O)C(F)(F)F)c(OC)c12 [Example 140]
target_under_test: TYK2-JH2 domain (Homo sapiens, UniProt P29597)
class_label: Not satisfied
--
compound: [2H]C([2H])([2H])NC(=O)c1cnc(NC(=O)C2CC2)cc1Nc1cnn2ccc([C@H](OC(C)=O)C(F)(F)F)c(OC)c12 [Example 43]
target_under_test: TYK2-JH2 domain (Homo sapiens, UniProt P29597)
class_label: Satisfied
--
compound: [2H]C([2H])([2H])NC(=O)c1cnc(NC(=O)[C@@H]2C[C@@H]2F)cc1Nc1cnn2ccc(C(O)C(F)(F)F)c(OC)c12 (single isomer, unassigned) [Example 15B]
target_under_test: TYK2-JH2 domain (Homo sapiens, UniProt P29597)
class_label: Not satisfied
--
compound: CNC(=O)c1cnc(NC(=O)C2CC2)cc1Nc1nn(C)c2cccc(OC)c12 [Example 100]
target_under_test: TYK2-JH2 domain (Homo sapiens, UniProt P29597)
class_label: Satisfied
--
compound: COC(=O)c1cnc(NC(=O)C2CC2)cc1Nc1nn(C)c2ccc(C(O)C(F)(F)F)c(OC)c12 (stereo not shown) [Example 48]
target_under_test: TYK2-JH2 domain (Homo sapiens, UniProt P29597)
class_label: Satisfied
--
compound: [2H]C([2H])([2H])NC(=O)c1cnc(NC(=O)C2CC2)cc1Nc1cnn2ccc(Cl)c(OC)c12 [Example 3]
target_under_test: TYK2-JH2 domain (Homo sapiens, UniProt P29597)
class_label: Not satisfied
--
compound: COC(=O)c1cnc(NC(=O)C2CC2)cc1Nc1nn(C)c2ccc(C(OC)C(F)F)c(OC)c12 (stereo not shown) [Example 68]
target_under_test: TYK2-JH2 domain (Homo sapiens, UniProt P29597)
class_label: Satisfied
--
compound: [2H]C([2H])([2H])NC(=O)c1cnc(NC(=O)C2CC2)cc1Nc1cnn2ccc(C(=O)OC)c(OC)c12 [Example 6]
target_under_test: TYK2-JH2 domain (Homo sapiens, UniProt P29597)
class_label: Not satisfied
--
compound: [2H]C([2H])([2H])C([2H])([2H])C(=O)c1cnc(NC(=O)C2CC2)cc1Nc1nn(C)c2ccc([C@H](O)C(F)(F)F)c(OC)c12 [Example 154]
target_under_test: TYK2-JH2 domain (Homo sapiens, UniProt P29597)
class_label: Satisfied
--
compound: [2H]C([2H])([2H])O[C@@H](c1ccn2ncc(Nc3cc(NC(=O)C4CC4)ncc3C(=O)OC)c2c1OC)C(F)(F)F [Example 47]
target_under_test: TYK2-JH2 domain (Homo sapiens, UniProt P29597)
class_label: Satisfied
--
compound: [2H]C([2H])([2H])NC(=O)c1cnc(Nc2cc(CN3CCOCC3)n(C)n2)cc1Nc1nn(C)c2ccc([C@H](OC)C(F)(F)F)c(OC)c12 [Example 182]
target_under_test: TYK2-JH2 domain (Homo sapiens, UniProt P29597)
class_label: Not satisfied
--
compound: COC(=O)c1cnc(Nc2ccn(C)n2)cc1Nc1nn(C)c2ccc([C@H](OC)C(F)(F)F)c(OC)c12 [Example 180]
target_under_test: TYK2-JH2 domain (Homo sapiens, UniProt P29597)
class_label: Satisfied
--
compound: [2H]C([2H])([2H])NC(=O)c1cnc(NC(=O)C2CC2)cc1Nc1cnn2cccc(OC)c12 [Example 44]
target_under_test: TYK2-JH2 domain (Homo sapiens, UniProt P29597)
class_label: Not satisfied
--
compound: [2H]C([2H])([2H])NC(=O)c1cnc(NC(=O)[C@@H]2C[C@@H]2F)cc1Nc1cnn2cnc(C(C)C(F)(F)F)c(OC)c12 (stereo partly shown) [Example 38]
target_under_test: TYK2-JH2 domain (Homo sapiens, UniProt P29597)
class_label: Satisfied
--
compound: CCC(F)(F)c1cnc(NC(=O)C2CC2)cc1Nc1nccc(-c2cnn(C)n2)c1OC [Example 174]
target_under_test: TYK2-JH2 domain (Homo sapiens, UniProt P29597)
class_label: Not satisfied
--
compound: CCOC(=O)c1cnc(NC(=O)C2CC2)cc1Nc1cnn2ccc([C@H](O)C(F)(F)F)c(OC)c12 [Example 83]
target_under_test: TYK2-JH2 domain (Homo sapiens, UniProt P29597)
class_label: Satisfied
--
compound: CNC(=O)c1cnc(NC(=O)C2CC2)cc1Nc1nn(C)c2ccc([C@H](O)C(F)(F)F)c(OC)c12 [Example 189]
target_under_test: TYK2-JH2 domain (Homo sapiens, UniProt P29597)
class_label: Not satisfied
